Target: Gal(a1-3)[Gal(a1-4)]Gal(b1-4)GlcNAc
Test: glycan array binding signal (z-score within array); higher = stronger binding
Conditions: glycan notation: IUPAC condensed, linker removed
Only a selection was taken, and the strongest signals are over-represented in it overall.
Listed below: glycan array binding signal (z-score) values for each entry.

| binder | glycan array binding signal (z-score) |
| --- | --- |
| Epa13 (Candida glabrata) (protein) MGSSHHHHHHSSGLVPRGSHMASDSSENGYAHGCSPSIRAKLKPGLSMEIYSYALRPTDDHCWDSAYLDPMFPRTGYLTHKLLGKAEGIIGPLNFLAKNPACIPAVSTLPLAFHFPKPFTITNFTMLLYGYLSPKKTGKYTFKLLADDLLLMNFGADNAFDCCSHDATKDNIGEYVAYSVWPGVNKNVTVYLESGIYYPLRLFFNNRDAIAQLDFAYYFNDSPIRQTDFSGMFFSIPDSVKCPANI | 1.47 |
| Gz-CVNH (Gibberella zeae) (protein) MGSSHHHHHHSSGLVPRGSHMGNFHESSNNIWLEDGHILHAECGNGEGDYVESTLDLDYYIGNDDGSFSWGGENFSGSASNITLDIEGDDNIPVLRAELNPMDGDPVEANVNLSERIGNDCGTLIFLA | -0.135 |
| PA-IL (Pseudomonas aeruginosa) (protein) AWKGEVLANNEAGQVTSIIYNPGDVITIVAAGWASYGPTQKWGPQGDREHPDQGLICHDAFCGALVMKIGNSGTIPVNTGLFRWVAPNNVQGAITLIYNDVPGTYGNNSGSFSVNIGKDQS | 3.92 |
| Fm1D (Escherichia coli) (protein) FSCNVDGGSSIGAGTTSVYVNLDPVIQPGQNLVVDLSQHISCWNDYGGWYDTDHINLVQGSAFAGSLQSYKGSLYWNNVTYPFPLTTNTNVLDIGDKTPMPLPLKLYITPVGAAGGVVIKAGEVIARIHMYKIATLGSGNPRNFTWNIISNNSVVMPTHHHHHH | -0.125 |
| FimA-N2 (Actinomyces oris) (protein) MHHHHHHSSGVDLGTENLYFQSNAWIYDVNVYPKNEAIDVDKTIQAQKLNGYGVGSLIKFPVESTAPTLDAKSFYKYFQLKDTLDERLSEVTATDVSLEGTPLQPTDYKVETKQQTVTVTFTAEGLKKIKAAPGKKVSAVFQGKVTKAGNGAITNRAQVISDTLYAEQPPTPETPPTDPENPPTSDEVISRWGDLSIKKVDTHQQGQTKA | 2.77 |
| Epa12 (Candida glabrata) (protein) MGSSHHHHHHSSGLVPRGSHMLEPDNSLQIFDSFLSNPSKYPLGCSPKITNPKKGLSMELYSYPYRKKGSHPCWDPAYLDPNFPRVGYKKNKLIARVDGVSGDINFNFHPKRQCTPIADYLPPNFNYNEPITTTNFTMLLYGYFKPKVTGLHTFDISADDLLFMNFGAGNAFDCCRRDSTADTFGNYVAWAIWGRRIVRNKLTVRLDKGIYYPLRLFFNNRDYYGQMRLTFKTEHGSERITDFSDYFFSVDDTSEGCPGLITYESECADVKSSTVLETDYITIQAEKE | 1.17 |
| F17dG (Escherichia coli), Q47199 (protein) MTNFYKVFLAVFILVCCNISQAAVSFIGSTENDVGPSPGSYSRTHAMDNLPFVYNTGNNIGYQNANVWRISKGFCVGLDGKVDLPVVGSLDGQSIYGLTEEVGLLIWMGDTNYSRGTAMSGNSWENVFSGWCVGANTASTQGLSVRVTPVILKRNSSARYSVQKTSIGSIRMRPYNGSSAGSVQTTVNFSLNPFTLNDTVTSCRLLTPSAVNVSLAAISAGQLPSSGDEVVAGTTSLKLQCDAGVTVWATLTDATTPSNRSDILTLTGASTATGVGLRIYKNTDSTPLKFGPDSPVKGNENQWQLSTGTETSPSVRLYVKYVNTGEGINPGTVNGISTFTFSYQ | -0.399 |
